Values were extracted from ChEMBL document CHEMBL3991601.

Assay target: Ribosyldihydronicotinamide dehydrogenase [quinone] (Homo sapiens); further: in the data inactive means no Kd found up to 30 µM
Sequence (P16083 whole entry): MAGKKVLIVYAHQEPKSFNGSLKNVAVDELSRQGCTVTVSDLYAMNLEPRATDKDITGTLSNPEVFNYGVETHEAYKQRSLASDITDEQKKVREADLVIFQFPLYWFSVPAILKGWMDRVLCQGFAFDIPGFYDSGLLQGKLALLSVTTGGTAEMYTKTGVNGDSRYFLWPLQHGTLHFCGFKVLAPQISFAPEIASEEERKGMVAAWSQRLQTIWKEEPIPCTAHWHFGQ
Active and inactive are the calls of the source.
Log the outcome using a class from active, inactive

Reference set, count: 5
{"Compound": "Cc1cc([C@@H](C)Nc2ccccc2C(=O)O)c2nc(N3CCOCC3)cc(=O)n2c1", "Label value": "inactive"}
{"Compound": "C[C@@H](c1ccc2nccn2c1)n1nnc2ncc(-c3cnn(C)c3)nc21", "Label value": "active"}
{"Compound": "CCn1c(=O)c(-c2cc[nH]n2)cc2c(C)nc(N)nc21", "Label value": "inactive"}
{"Compound": "O=C(c1ccc(F)c(F)c1Nc1ccc(I)cc1F)N1CC(O)([C@@H]2CCCCN2)C1", "Label value": "inactive"}
{"Compound": "C[C@@H](Nc1cc(F)cc(F)c1)c1cc(C(=O)N(C)C)cc2c(=O)cc(N3CCOCC3)oc12", "Label value": "inactive"}

Query: Test call for this compound, please: CNC(=O)c1cc(Oc2ccc(NC(=O)Nc3ccc(Cl)c(C(F)(F)F)c3)c(F)c2)ccn1
Reply: inactive

Query: Test call for this compound, please: N[C@@H]1CCCN(c2c(/C=C3\SC(=O)NC3=O)cccc2-c2ccccc2)C1
Reply: inactive

Query: Test call for this compound, please: CC(C)Nc1cc(-c2c[nH]c(C(=O)N[C@H](CO)c3cccc(Cl)c3)c2)c(Cl)cn1
Reply: inactive

Query: Test call for this compound, please: CN1CC[C@@H](c2c(O)cc(O)c3c(=O)cc(-c4ccccc4Cl)oc23)[C@@H]1CO
Reply: inactive

Query: Test call for this compound, please: CCn1c(-c2nonc2N)nc2c(C#CC(C)(C)O)ncc(OC[C@H]3CCCNC3)c21
Reply: inactive

Query: Test call for this compound, please: O=C(O)[C@]1(Cc2cccc(Nc3nccs3)n2)CC[C@@H](Oc2cccc(Cl)c2F)CC1
Reply: inactive

Query: Test call for this compound, please: Cn1ncc(Cl)c1-c1cc(C(=O)N[C@H](CN)Cc2cccc(F)c2)sc1Cl
Reply: inactive

Query: Test call for this compound, please: Cn1cc(-c2ccc3nnc(C(F)(F)c4ccc5ncccc5c4)n3n2)cn1
Reply: active

Query: Test call for this compound, please: OCCn1cc(-c2cnc3nnn(Cc4ccc5ncccc5c4)c3n2)cn1
Reply: inactive

Query: Test call for this compound, please: CN1N=C(N)c2cn([C@@H]3O[C@H](COP(=O)(O)O)[C@@H](O)[C@H]3O)c3ncnc1c23 [TRICIRIBINE PHOSPHATE]
Reply: inactive

Query: Test call for this compound, please: COc1ccc(-c2ccc3c(N4CCOC[C@@H]4C)nc(N4CCOC[C@@H]4C)nc3n2)cc1CO
Reply: inactive

Query: Test call for this compound, please: C[C@@H]1CN(Cc2ccc(F)cc2)[C@@H](C)CN1C(=O)c1cc2c(C(=O)C(=O)N(C)C)cn(C)c2cc1Cl
Reply: active

Query: Test call for this compound, please: O=C(Nc1ccc(-c2ccnc(Nc3ccc(N4CCOCC4)cc3)n2)cc1)C1CCCN1 (stereo not drawn)
Reply: inactive

Query: Test call for this compound, please: CCS(=O)(=O)N1CC(CC#N)(n2cc(-c3ncnc4[nH]ccc34)cn2)C1
Reply: inactive

Query: Test call for this compound, please: CNC(=O)c1ccc(C)c(-n2c(C)cc(OCc3ccc(F)cc3F)c(Br)c2=O)c1
Reply: inactive

Query: Test call for this compound, please: COC(=O)[C@@]1(O)C[C@H]2O[C@]1(C)n1c3ccccc3c3c4c(c5c6ccccc6n2c5c31)C(=O)NC4 [K-252A]
Reply: active

Query: Test call for this compound, please: CN1CCN(c2ccc3nc(-c4c(N)c5c(F)cccc5[nH]c4=O)[nH]c3c2)CC1
Reply: active
